# experimental_target: His-tagged SLDH (Gluconobacter oxydans)
# Sequence (Q9KWR5 entry or part of it): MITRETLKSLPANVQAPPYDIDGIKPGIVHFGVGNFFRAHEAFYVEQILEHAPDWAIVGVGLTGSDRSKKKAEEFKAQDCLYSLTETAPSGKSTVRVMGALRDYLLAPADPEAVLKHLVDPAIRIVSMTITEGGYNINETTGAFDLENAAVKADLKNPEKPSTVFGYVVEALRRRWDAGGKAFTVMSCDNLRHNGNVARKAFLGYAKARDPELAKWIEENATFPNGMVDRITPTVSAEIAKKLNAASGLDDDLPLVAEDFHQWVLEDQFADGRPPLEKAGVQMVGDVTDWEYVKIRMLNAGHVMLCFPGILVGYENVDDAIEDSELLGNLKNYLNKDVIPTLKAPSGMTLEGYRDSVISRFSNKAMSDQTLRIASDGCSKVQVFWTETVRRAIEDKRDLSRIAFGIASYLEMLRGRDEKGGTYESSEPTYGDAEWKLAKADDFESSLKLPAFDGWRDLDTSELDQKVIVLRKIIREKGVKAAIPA
# experiment: SLDH activity: substrate specificity
# Format: biochemical, Gluconobacter oxydans G624
# measurement_setup: substrate varied; glycine/NaOH buffer pH 10.1, coenzyme NADP+
observed_property: Activity (U/mg protein)
State the answer as a number, implicitly in U/mg protein.

# input Find the recorded Activity belonging to OC[C@@H](O)[C@@H](O)[C@@H](O)CO and report it.
# output 0

# input Also OC[C@@H](O)[C@H](O)[C@@H](O)CO , if possible.
# output 0

# input Query OC[C@@H](O)C(O)[C@H](O)CO next
# output 88.1

# input Repeat for the following compound: OCC(O)CO
# output 0

# input Ok, now OC[C@@H](O)[C@@H](O)[C@H](O)[C@H](O)CO
# output 85.7

# input Could you do the same for O[C@H]1[C@H](O)[C@@H](O)[C@H](O)[C@@H](O)[C@H]1O , please?
# output 0

# input How about OC[C@@H](O)[C@@H](O)[C@H](O)[C@@H](O)CO ?
# output 130.2
